- System: HT29
- run_description: SRB assay, inhibition of cancer cell proliferation, HT29
- Type: cell-based
- test_parameters: Homo sapiens, HT-29
- Protocol: The inhibition of cell proliferation was measured in the indicated cancer cell lines using the sulforhodamine B (SRB) assay as described by Monks et al., 1991, J. Natl. Can. Inst. 83:757-766. The SRB assay is used to screen for anti-cancer drugs. […] The table provides the dosage of each compound (in mM) which inhibited fifty percent (IC50) or ninety percent (IC90) of proliferation when calculated using the Chou Analysis' Median Effective Dose equation.
measured_quantity: IC50

{"columns": ["compound", "measured_quantity", "result_value"],
 "data": [
  ["CC(Cc1ccccc1)C(=O)O (stereo not shown) [MePPA, 2-methyl-3-phenylpropionic acid, reference compound]", "IC50", "> 4 mM"]
]}

Reference for the values: patent US6599937B1
